- TARGET OR SYSTEM: T1, human C type Lectin Like molecule 1 (CLL-1) on cells (human, UniProt Q5QGZ9 1-265)
- T1 construct: also called hCLL-1; CLEC12A
- T1 sequence: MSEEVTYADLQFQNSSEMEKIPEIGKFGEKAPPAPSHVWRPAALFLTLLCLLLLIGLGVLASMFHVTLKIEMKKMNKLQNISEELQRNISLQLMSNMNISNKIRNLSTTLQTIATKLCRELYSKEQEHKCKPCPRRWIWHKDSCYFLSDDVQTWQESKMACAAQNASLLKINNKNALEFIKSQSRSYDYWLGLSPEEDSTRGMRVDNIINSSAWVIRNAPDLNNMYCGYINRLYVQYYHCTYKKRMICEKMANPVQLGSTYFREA
- ASSAY INFO: FACS, OCI AML-5 AML cell line
# maps each entry to its % of live cells with antibody binding
Entry rule: numbers only, all in %.

query: What does the data say about its % of live cells with antibody binding? Entry: CLL-1 antibody clone M29 (antibody, IgG1, V domains shown) VH: EVQLQQSGPELVKPGASVKMSCKASGYIFTSYVMYWVKQKPGQGLEWIGYINPYNDGTKYNEKFKGKATLTSDKSSSTAYMELSSLTSEDSAVYYCARYYDYDYYFDYWGQGTTLTVSS VL: DIQMTQSPSSLSASLGGKVTITCKASQDINKYIAWYQHKPGKGPRLLIHYTSTLQPGIPSRFSGSGSGRDYSFSISNLEPEDIATYYCLQYDYLWTFGGGTKLEIK
result: 87.6

query: // % of live cells with antibody binding lookup, key: CLL-1 antibody clone M5 (antibody, IgG2a, V domains shown) VH: EVQLQQSGAELVRPGASVKLSCTASGFNIKDDYIHWVKQRPEQGLEWIGWIDPEKGDTAYASKFQDKATITSDTSSNTAYLQLSSLTSEDTAVYYCTLTGRFDYWGQGTTLTVSS VL: DIVMSQSPSSLAVSVGEKVTMSCKSSQSLLYSSNQKNNLAWYQQKPGQSPKLLIYWASTRESGVPDRFTGSGSGTDFTLTISSVQAEDLAVYYCQQYYSYRTFGGGTKLEIK
result: 2.3

Shifting focus to the binder that follows.
query: Return reported % of live cells with antibody binding; argument: CLL-1 antibody clone M31 (antibody, IgG2a, V domains shown) VH: EVQLQQSGPELVKPGASVKMSCKASGYTFTSYVMHWVKQKPGQGLEWIGYINPYNDGTKYNEKFKGKATLTSDTSSSTAYMELNSLTSEDSAVYFCARPIYFDNDYFDYWGQGTTLKVSS VL: TIVLTQSPASLAVSLGQRATISCRASESVDSYGNSFMHWYQQKPGQPPKLLIYLASNLESGVPARFSGSGSRTDFTLTIDPVEADDAATYYCQQNNYDPWTFGGGTKLEIK
result: 89.7

Every entry's value here was drawn from patent US20130295118A1.
